biological target: Mitogen-activated protein kinase 14 (Homo sapiens); test: Inhibition of p38alpha using myelin basic protein as substrate preincubated for 15 mins prior ATP addition measured after 60 mins by scintillation counting
Sequence (Q16539 whole entry): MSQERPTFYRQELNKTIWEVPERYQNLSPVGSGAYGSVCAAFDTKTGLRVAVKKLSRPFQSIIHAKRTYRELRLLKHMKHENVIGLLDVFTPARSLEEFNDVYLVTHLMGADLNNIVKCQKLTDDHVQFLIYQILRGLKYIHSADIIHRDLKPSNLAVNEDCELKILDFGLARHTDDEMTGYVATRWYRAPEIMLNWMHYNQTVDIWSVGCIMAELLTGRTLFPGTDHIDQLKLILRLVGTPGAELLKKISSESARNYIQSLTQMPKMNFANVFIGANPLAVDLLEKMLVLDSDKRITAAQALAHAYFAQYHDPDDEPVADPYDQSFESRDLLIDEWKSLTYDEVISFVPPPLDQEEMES
test-readout: IC50 (µM)

structure-smiles-string | target-under-test | test-readout | censor-symbol | endpoint-value
CCO[C@H]1CC[C@H](Nc2ncc3nc(Nc4ccc(F)cc4F)n(C4CCOCC4)c3n2)CC1 | Mitogen-activated protein kinase 14 (Homo sapiens) | IC50 | > | 3
C[C@]1(O)CC[C@H](Nc2ncc3nc(Nc4ccc(F)cc4F)n(C4CCOCC4)c3n2)CC1 | Mitogen-activated protein kinase 14 (Homo sapiens) | IC50 | > | 3
CC(C)(O)[C@H]1CC[C@H](Nc2ncc3nc(Nc4ccc(F)cc4F)n(C4CCOCC4)c3n2)CC1 | Mitogen-activated protein kinase 14 (Homo sapiens) | IC50 | = | 0.98
Fc1ccc(Nc2nc3cnc(C4CCOCC4)nc3n2C2CCCC2)c(F)c1 | Mitogen-activated protein kinase 14 (Homo sapiens) | IC50 | = | 0.23
CNC(=O)[C@H]1CC[C@H](Nc2ncc3nc(Nc4c(F)cc(F)cc4F)n([C@H]4CCOC4)c3n2)CC1 | Mitogen-activated protein kinase 14 (Homo sapiens) | IC50 | = | 4.2
CC(C)Nc1ncc2nc(Nc3c(F)cc(F)cc3F)n([C@H]3CC[C@@H](C(=O)NC4CC4)CC3)c2n1 | Mitogen-activated protein kinase 14 (Homo sapiens) | IC50 | = | 6.2
O[C@H]1CC[C@H](Nc2ncc3nc(Nc4c(F)cc(F)cc4F)n([C@@H]4CCOC4)c3n2)CC1 | Mitogen-activated protein kinase 14 (Homo sapiens) | IC50 | > | 3

====

molecular target: c-Jun N-terminal kinase, JNK (Homo sapiens, UniProt P45983+P53779+P45984); test: Inhibition of JNK-mediated GST tagged c-Jun phosphorylation in human Jurkat T cells compound treated for 30 mins prior anisomycin stimulation measured after 40 mins by fluorescence spectrophotometry; format: cell-based
For each record, check the reported IC50: if it is below 900 nM write Yes, else write No.

structure-smiles-string | category-label
CC(C)(O)[C@H]1CC[C@H](Nc2ncc3nc(Nc4ccc(F)cc4F)n(C4CCCC4)c3n2)CC1 | No
CC(C)Nc1ncc2nc(Nc3c(F)cc(F)cc3F)n([C@H]3CC[C@@H](C(N)=O)CC3)c2n1 | Yes
O[C@H]1CC[C@H](Nc2ncc3nc(Nc4ccc(F)cc4F)n(C4CCOCC4)c3n2)CC1 | Yes
CC(C)Nc1ncc2nc(Nc3c(F)cc(F)cc3F)n([C@H]3CC[C@@H](C(=O)NC4CC4)CC3)c2n1 | Yes
C[C@]1(O)CC[C@H](Nc2ncc3nc(Nc4ccc(F)cc4F)n(C4CCOCC4)c3n2)CC1 | No
O[C@H]1CC[C@H](Nc2ncc3nc(Nc4ccc(F)cc4F)n(C4CCCC4)c3n2)CC1 | Yes
CNC(=O)[C@H]1CC[C@H](Nc2ncc3nc(Nc4c(F)cc(F)cc4F)n([C@H]4CCOC4)c3n2)CC1 | Yes
CC(C)(O)[C@H]1CC[C@H](Nc2ncc3nc(Nc4ccc(F)cc4F)n(C4CCOCC4)c3n2)CC1 | No

====

target: Mitogen-activated protein kinase 3 (Homo sapiens, UniProt P27361); experiment: Inhibition of ERK1
Sequence (P27361 whole entry): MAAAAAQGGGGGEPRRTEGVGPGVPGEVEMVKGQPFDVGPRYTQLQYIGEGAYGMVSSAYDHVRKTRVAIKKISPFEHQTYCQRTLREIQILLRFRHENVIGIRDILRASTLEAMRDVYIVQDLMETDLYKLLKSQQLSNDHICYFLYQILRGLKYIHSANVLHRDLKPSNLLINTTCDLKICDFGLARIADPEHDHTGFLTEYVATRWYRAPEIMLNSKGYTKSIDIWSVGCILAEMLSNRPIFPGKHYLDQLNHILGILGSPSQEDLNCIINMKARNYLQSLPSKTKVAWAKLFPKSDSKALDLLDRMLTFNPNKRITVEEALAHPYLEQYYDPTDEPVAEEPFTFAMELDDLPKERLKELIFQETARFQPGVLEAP

compound | IC50
O[C@H]1CC[C@H](Nc2ncc3nc(Nc4c(F)cc(F)cc4F)n([C@H]4CCOC4)c3n2)CC1 [TANZISERTIB] | 480 nM

====

assay: Tmax in cynomolgus monkey at 10 mg/kg, po; format: ADME, organism-based, Macaca fascicularis; parameters: dose 10 mg/kg, route oral; conditions: in vivo
Documented Tmax across a set of compounds
test-readout: Tmax

compound | endpoint-value
CNC(=O)[C@H]1CC[C@H](Nc2ncc3nc(Nc4c(F)cc(F)cc4F)n([C@H]4CCOC4)c3n2)CC1 | 0.83 h
O[C@H]1CC[C@H](Nc2ncc3nc(Nc4c(F)cc(F)cc4F)n([C@H]4CCOC4)c3n2)CC1 [TANZISERTIB] | 1.3 h

====

test: Cmax in dog at 10 mg/kg, po; format: ADME, organism-based, Canis lupus familiaris; parameters: dose 10 mg/kg, route oral; details: in vivo
Documented Cmax across a set of compounds

compound | Cmax, µM
O[C@H]1CC[C@H](Nc2ncc3nc(Nc4c(F)cc(F)cc4F)n([C@H]4CCOC4)c3n2)CC1 [TANZISERTIB] | 7.2
CNC(=O)[C@H]1CC[C@H](Nc2ncc3nc(Nc4c(F)cc(F)cc4F)n([C@H]4CCOC4)c3n2)CC1 | 0.86

====

assay: AUC in rat at 2 mg/kg, iv; assay type: ADME, organism-based; set-up: dose 2 mg/kg, route intravenous; details: plasma

structure-smiles-string | AUC, µM·h
CNC(=O)[C@H]1CC[C@H](Nc2ncc3nc(Nc4c(F)cc(F)cc4F)n([C@H]4CCOC4)c3n2)CC1 | 1.8
O[C@H]1CC[C@H](Nc2ncc3nc(Nc4c(F)cc(F)cc4F)n([C@H]4CCOC4)c3n2)CC1 | 1.9

====

experiment: Lipophilicity, log D of the compound; type: physicochemical; details: octanol/water
test-readout: logD

compound | endpoint-value
O[C@H]1CC[C@H](Nc2ncc3nc(Nc4c(F)cc(F)cc4F)n([C@H]4CCOC4)c3n2)CC1 [TANZISERTIB] | 1.93

====

biological target: c-Jun N-terminal kinase, JNK (Homo sapiens, UniProt P45983+P53779+P45984); assay: Inhibition of JNK-mediated GST tagged c-Jun phosphorylation in human Jurkat T cells compound treated for 30 mins prior anisomycin stimulation measured after 40 mins by fluorescence spectrophotometry; type: cell-based
Documented IC50 across a set of compounds
test-readout: IC50 (nM)

structure-smiles-string | test-readout | endpoint-value
CC(C)(O)[C@H]1CC[C@@H](c2ncc3nc(Nc4ccc(F)cc4F)n(C4CCOCC4)c3n2)C1 | IC50 | 1700
CCO[C@H]1CC[C@H](Nc2ncc3nc(Nc4ccc(F)cc4F)n(C4CCOCC4)c3n2)CC1 | IC50 | 1600
CC(C)Nc1ncc2nc(Nc3c(F)cc(F)cc3F)n([C@H]3CC[C@@H](C(=O)N4CCOCC4)CC3)c2n1 | IC50 | 230

====

molecular target: Mitogen-activated protein kinase 9 (Homo sapiens); assay: Inhibition of hexa-His-tagged JNK2 expressed in baculoviral system using GST-tagged cJun as substrate preincubated for 15 mins prior ATP addition measured after 60 mins by scintillation counting
Sequence (P45984 whole entry): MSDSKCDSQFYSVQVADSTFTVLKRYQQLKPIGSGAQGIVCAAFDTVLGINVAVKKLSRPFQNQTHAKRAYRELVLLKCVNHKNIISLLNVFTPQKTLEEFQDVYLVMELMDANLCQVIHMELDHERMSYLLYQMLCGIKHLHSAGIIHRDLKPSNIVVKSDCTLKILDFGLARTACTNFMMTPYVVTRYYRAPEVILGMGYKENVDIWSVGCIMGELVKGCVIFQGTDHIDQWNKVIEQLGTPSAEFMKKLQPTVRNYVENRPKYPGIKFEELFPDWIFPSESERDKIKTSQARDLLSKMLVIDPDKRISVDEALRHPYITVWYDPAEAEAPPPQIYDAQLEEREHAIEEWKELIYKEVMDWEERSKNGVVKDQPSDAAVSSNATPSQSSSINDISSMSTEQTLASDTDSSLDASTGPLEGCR
pIC50: −log10 of the molar value.

structure-smiles-string | pIC50
CNC(=O)[C@H]1CC[C@H](Nc2ncc3nc(Nc4c(F)cc(F)cc4F)n([C@H]4CCOC4)c3n2)CC1 | 8.00

====

assay: Oral bioavailability in rat; type: ADME, organism-based; conditions: in vivo
Documented bioavailability across a set of molecules
test-readout: bioavailability

molecule | endpoint-value
N[C@H]1CC[C@H](Nc2ncc3nc(Nc4ccc(F)cc4F)n(C4CCCC4)c3n2)CC1 | 8%
CC(C)Nc1ncc2nc(Nc3c(F)cc(F)cc3F)n([C@H]3CC[C@@H](C(=O)N4CCOCC4)CC3)c2n1 | 20%
CC(C)Nc1ncc2nc(Nc3c(F)cc(F)cc3F)n([C@H]3CC[C@@H](C(=O)NC4CC4)CC3)c2n1 | 42%
CC(C)Nc1ncc2nc(Nc3c(F)cc(F)cc3F)n([C@H]3CC[C@@H](C(N)=O)CC3)c2n1 | 32%
O[C@H]1CC[C@H](Nc2ncc3nc(Nc4ccc(F)cc4F)n(C4CCOCC4)c3n2)CC1 | 70%
O[C@H]1CC[C@H](Nc2ncc3nc(Nc4ccc(F)cc4F)n(C4CCCC4)c3n2)CC1 | 68%
CNC(=O)[C@H]1CC[C@H](Nc2ncc3nc(Nc4c(F)cc(F)cc4F)n([C@H]4CCOC4)c3n2)CC1 | 33%
O[C@H]1CC[C@H](Nc2ncc3nc(Nc4c(F)cc(F)cc4F)n([C@H]4CCOC4)c3n2)CC1 [TANZISERTIB] | 30%

====

assay: Oral bioavailability in cynomolgus monkey at 10 mg/kg; format: ADME, organism-based, Macaca fascicularis; settings: in vivo

structure-smiles-string | unit-of-measure | bioavailability
O[C@H]1CC[C@H](Nc2ncc3nc(Nc4c(F)cc(F)cc4F)n([C@H]4CCOC4)c3n2)CC1 | % | 77
CNC(=O)[C@H]1CC[C@H](Nc2ncc3nc(Nc4c(F)cc(F)cc4F)n([C@H]4CCOC4)c3n2)CC1 | % | 48

====

test: Oral bioavailability in rat at 10 mg/kg; format: ADME, organism-based; conditions: in vivo
Documented bioavailability across a set of compounds
test-readout: bioavailability (%)

compound | endpoint-value
CNC(=O)[C@H]1CC[C@H](Nc2ncc3nc(Nc4c(F)cc(F)cc4F)n([C@H]4CCOC4)c3n2)CC1 | 33
O[C@H]1CC[C@H](Nc2ncc3nc(Nc4c(F)cc(F)cc4F)n([C@H]4CCOC4)c3n2)CC1 [TANZISERTIB] | 30
